test system: HEK293; test: Cytotoxic Profiling of Annotated Libraries Using Quantitative High-Throughput Screening (AID 1296008); details: Five cell lines viability, CellTiter-Glo ATP luminescence, 48-72 h; stronger effect = lower value; further: on the % scale 0 is the no-effect control and ±100 the full control effect
Records with an inconclusive call do not appear.
measuredAttribute: max response (%)

COc1c2c(c(C)c3c1C(=O)OC3)OC1(C)CC(O)C34OC(OC)(OC3(C)C)C(O)CC4(C)C1C2 (stereo not given) : -9.65
COc1cc(O)cc(C)c1C(=O)OC1C(CO)OC(OC2C(O)C(O)C(O)C(O)C2O)C(O)C1O (stereo not given) : 4.85
CC1(C)CC[C@]2(C(=O)O[C@@H]3O[C@H](CO[C@@H]4O[C@H](CO)[C@@H](O)[C@H](O)[C@H]4O[C@@H]4O[C@H](CO)[C@@H](O)[C@H](O)[C@H]4O)[C@@H](O)[C@H](O[C@@H]4O[C@H](CO)[C@@H](O)[C@H](O)[C@H]4O)[C@H]3O)CC[C@]3(C)C(=CCC4[C@@]5(C)CC[C@@H](O)[C@@](C)(C(=O)O[C@@H]6O[C@H](CO)[C@@H](O)[C@H](O)[C@H]6O)C5CC[C@]43C)[C@@H]2C1 (stereo not given in full) : -9.43
C=C[C@H]1[C@H](O[C@@H]2O[C@H](CO)[C@@H](O)[C@H](O)[C@H]2O)OC=C(C(=O)OC)[C@H]1CC(=O)O : 3.67
CC1=CC(=O)CC(C)(CO)C1(O)/C=C/C(C)O[C@@H]1O[C@H](CO)[C@@H](O)[C@H](O)[C@H]1O (stereo not given in full) : -1.52
C[C@@H]1C(=O)O[C@H]2[C@@H](O)C34[C@H]5C[C@@H](C(C)(C)C)C36[C@@H](OC(=O)[C@@H]6O)O[C@@]4(C(=O)O5)[C@@]12O (stereo not given in full) : -1.43
C=C(CO[C@@H]1O[C@H](CO[C@@H]2OC[C@](O)(CO)[C@H]2O)[C@@H](O)[C@H](O)[C@H]1O)C1Cc2cc(C(C)=O)ccc2O1 (stereo not given in full) : -4.65
COc1ccc(C(O)C(C)OC2OC(CO)C(O)C(O)C2O)cc1 (stereo not given) : 0.525
Cc1cc(C)nc(NS(=O)(=O)c2ccc(NC(=S)NC(=O)COc3ccc(Br)cc3Cl)cc2)n1 : 2.6
CN[C@@H]1[C@H](O[C@H]2[C@H](O[C@@H]3[C@@H](O)[C@H](O)[C@@H](N=C(N)N)[C@H](O)[C@H]3N=C(N)N)O[C@@H](C)[C@]2(O)C=O)O[C@@H](CO)[C@H](O)[C@H]1O : 4.73
